// provenance: ChEMBL document CHEMBL4371095

assay: Inhibition of Wnt/beta-catenin signaling (unknown origin) expressed in HEK293 cells harboring GSK3B siRNA after 24 hrs by luciferase reporter gene assay; format: cell-based; conditions: Homo sapiens, HEK293, 24 h
Property: IC50
Answer with the figure and its unit, nothing else.

Can you share its IC50? I mean this molecule: "Cc1ccccc1-n1nnc(C(=O)Nc2ccc3ccccc3n2)c1C" 34 nM

====

target: Glycogen synthase kinase-3 beta (Homo sapiens); test: Binding affinity to recombinant full length human N-terminal GST-tagged GSK3beta expressed in sf9 cells by SPR analysis
Sequence (P49841 whole entry): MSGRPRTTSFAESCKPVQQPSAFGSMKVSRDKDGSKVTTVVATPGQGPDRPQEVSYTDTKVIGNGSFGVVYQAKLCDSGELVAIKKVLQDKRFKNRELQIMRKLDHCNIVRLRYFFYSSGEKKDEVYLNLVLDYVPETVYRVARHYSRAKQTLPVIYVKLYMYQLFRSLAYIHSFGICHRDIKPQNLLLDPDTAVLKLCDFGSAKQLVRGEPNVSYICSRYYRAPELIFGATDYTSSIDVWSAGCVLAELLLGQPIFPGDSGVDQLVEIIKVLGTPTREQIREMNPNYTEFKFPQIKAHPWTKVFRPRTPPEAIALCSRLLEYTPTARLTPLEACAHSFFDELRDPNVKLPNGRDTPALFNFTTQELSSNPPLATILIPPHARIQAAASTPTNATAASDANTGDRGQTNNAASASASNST
Property: Kd (µM)
Express it in µM; write the number only.

Data request, read-out Kd, for "Cc1ccccc1-n1nnc(C(=O)Nc2ccc3ccccc3n2)c1C" 4.3
